koff values by entry
Target: recombinant human ICAM1 (human, UniProt P05362 28-480, limits assumed)
Sequence (P05362 28-480 limits assumed): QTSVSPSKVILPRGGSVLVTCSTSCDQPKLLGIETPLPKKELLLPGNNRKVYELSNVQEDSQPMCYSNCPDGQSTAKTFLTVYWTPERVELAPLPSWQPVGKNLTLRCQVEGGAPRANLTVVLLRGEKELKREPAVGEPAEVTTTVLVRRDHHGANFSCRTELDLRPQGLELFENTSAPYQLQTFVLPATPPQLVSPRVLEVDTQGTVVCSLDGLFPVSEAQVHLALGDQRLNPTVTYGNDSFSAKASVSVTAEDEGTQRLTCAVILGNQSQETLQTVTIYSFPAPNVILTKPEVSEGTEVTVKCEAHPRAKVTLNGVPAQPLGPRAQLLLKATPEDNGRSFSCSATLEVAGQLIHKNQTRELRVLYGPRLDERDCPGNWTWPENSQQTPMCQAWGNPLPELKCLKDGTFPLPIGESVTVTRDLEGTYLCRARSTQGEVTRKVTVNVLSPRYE
Experiment: SPR (Biacore 8K), antibody captured, antigen injected
Give a bare numeral; the unit s⁻¹ is implied.

[[record]]
binder = "8H1 (antibody, human IgG1, kappa, V domains shown, Rabbit-human chimeric anti-ICAM1: rabbit VH and VL on human IgG1 and kappa constant regions) VH: QSVEESGGRLVTPGTPLTLTCTASGFSLSNYYMSWVRQAPGKGLEWIGIISDSGSTYYASWAKGRFTISKTSTTVDLKITSPTTEDTATYFCARDWSYDSSSGYYYYDMDLWGPGTLVTVSA VL: GYDMTQTPASVEVAVGGTVTIKCQASQSINSWLAWFQHKPGQPPKRLIYKASTLASGVSSRFKGSGSGTQFTLTISGVESADAATYYCQQGYSRSDGEHVFGGGTEVVVKR"
observation_type = "koff"
experimental_result = 0.000345


Moving on to another binder below.
Reported koff ( 3D8 (antibody, human IgG1, kappa, V domains shown, Rabbit-human chimeric anti-ICAM1: rabbit VH and VL on human IgG1 and kappa constant regions) VH: QSLEESGGDLVKPGASLTLTCTASGFSFSSSYWMCWVRQAPGKGLEWIACIDGGSAGYNYYATWAKGRFTISKTSSTTVTLQMTSLTAADRATYFCARGPGSSYNLWGPGTLVTVSS VL: DIVMTQTPASVEAAVGGTVTIKCQASQSISSYLSWYQQKPGQPPKLLIYRASTLASGVPSRFKGSGSGTEFTLTISDLESADAATYYCQSYVFGSSRSYDNAFGGGTEVVVKR ) = 0.00909
